From: patent US20240270821A1

Molecular target: hGLP-1R (Homo sapiens)
Sequence (P43220 24-463): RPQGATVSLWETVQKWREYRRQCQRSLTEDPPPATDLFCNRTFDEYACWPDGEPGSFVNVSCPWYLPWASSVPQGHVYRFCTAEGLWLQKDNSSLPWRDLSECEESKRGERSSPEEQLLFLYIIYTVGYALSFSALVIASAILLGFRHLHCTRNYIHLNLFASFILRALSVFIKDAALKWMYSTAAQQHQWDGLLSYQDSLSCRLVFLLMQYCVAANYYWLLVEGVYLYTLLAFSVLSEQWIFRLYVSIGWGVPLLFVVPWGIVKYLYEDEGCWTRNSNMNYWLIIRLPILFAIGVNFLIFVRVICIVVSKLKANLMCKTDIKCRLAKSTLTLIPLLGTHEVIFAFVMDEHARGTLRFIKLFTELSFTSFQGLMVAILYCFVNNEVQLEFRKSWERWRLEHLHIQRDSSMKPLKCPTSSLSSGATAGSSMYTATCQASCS
Experiment: Functional cAMP activity in the presence of 1% HSA
Type: cell-based
Conditions: read-out: cAMP Rel EC50, hGLP-1R
Starred links: 1 amine or outer side, 2 acyl side, 3 side chain; linkers in the order of their positions; H or OH if unused. Non-standard residues stand in square brackets, D forms with d. Groups on a side chain read outwards from the residue. No end group written: not given here. *: point of attachment. C20 diacid = O=C(O)CCCCCCCCCCCCCCCCCCC(=O)*; C18 diacid = O=C(O)CCCCCCCCCCCCCCCCC(=O)*; Phe(4-CN) = N#Cc1ccc(C[C@H](N)C(=O)O)cc1; αMePhe(2-F) = C[C@](N)(Cc1ccccc1F)C(=O)O; γGlu = O=C(O)[C@H](CCC(=O)[*:2])N[*:1]; NMeY = CN[C@@H](Cc1ccc(O)cc1)C(=O)O; αMe4Pal = C[C@](N)(Cc1ccncc1)C(=O)O; αMeY = C[C@](N)(Cc1ccc(O)cc1)C(=O)O; αMeF = C[C@](N)(Cc1ccccc1)C(=O)O; 4Pal = N[C@@H](Cc1ccncc1)C(=O)O; αMeL = CC(C)C[C@](C)(N)C(=O)O; αMeS = C[C@](N)(CO)C(=O)O; Orn = NCCC[C@H](N)C(=O)O; AEEA = NCCOCCOCC(=O)O; Aib = CC(C)(N)C(=O)O
I'd be grateful if you could share measured EC50 for these entries.
Record the value in nM, omitting the unit from your answer.

[ask] Give the measured EC50 of H-Y[Aib]QGT[αMePhe(2-F)]TSD[4Pal][αMeS]I[αMeL]LD[Orn]K([AEEA-γGlu-C18 diacid])AQ[αMe4Pal]EFI[dE][αMeY]LVEGGPSSGAPPPESE-NH2 [Example 1156] .
[reply] 47.1

[ask] Give the measured EC50 of H-Y[Aib]QGT[αMePhe(2-F)]TSD[Phe(4-CN)]SILLDKQAQK([AEEA-γGlu-γGlu-C20 diacid])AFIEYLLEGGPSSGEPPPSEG-NH2 [Example 352] .
[reply] 407

[ask] Give the measured EC50 of Y[Aib]QGTFTSD[4Pal]SQ[αMeL]LDKK([γGlu-dE-dE-C18 diacid])AQ[αMe4Pal]AFIEYLIE[Aib]GPSSGAPPPSGSE-NH2 [Example 926] .
[reply] 600

[ask] Give the measured EC50 of H-Y[Aib]QGT[αMePhe(2-F)]TSDYSKLLDKIAQK([AEEA-γGlu-C20 diacid])[Orn]FIEWLIEGGPSSGEPPPSEG-NH2 [Example 310] .
[reply] 177

[ask] Give the measured EC50 of H-Y[Aib]QGT[αMePhe(2-F)]TSD[4Pal][αMeS]I[αMeL]LD[Orn]K([γGlu-γGlu-C18 diacid])AQ[Aib][Orn]FI[dE]YLSEGGPSSGEPPPSGTE-NH2 [Example 530] .
[reply] 437

[ask] Give the measured EC50 of H-Y[Aib]QGTFTSD[4Pal]SQ[αMeL]LD[Orn]K([dE-γGlu-C18 diacid])AQ[αMe4Pal]AFIE[αMeY]LIAGGPSSGAPPPSGSEE-NH2 [Example 1074] .
[reply] 101

[ask] Give the measured EC50 of H-[NMeY][Aib]QGT[αMeF]TSDYSILLDKQAAK([AEEA-AEEA-γGlu-C20 diacid])AFVQWLIEGGPSSGEPPPSEG-NH2 [Example 302] .
[reply] 73.6

[ask] Give the measured EC50 of H-Y[Aib]QGTFTSD[4Pal]SQ[αMeL]LDKK([AEEA-γGlu-C18 diacid])AQ[αMe4Pal]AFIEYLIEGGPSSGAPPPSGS-NH2 [Example 826] .
[reply] 202

[ask] Give the measured EC50 of H-Y[Aib]QGTFTSDFS[Orn][αMeL]LDKK([AEEA-γGlu-C20 diacid])AQ[Aib]AFIEYLLE[Aib]GPSSGAPPPSGS-NH2 [Example 73] .
[reply] 810

[ask] Give the measured EC50 of H-Y[Aib]QGTFTSDFS[Orn][αMeL]LDKK([AEEA-γGlu-C18 diacid])AQ[Aib]AFIEWLLEGGPSSGAPPPEGE-NH2 [Example 120] .
[reply] 664

[ask] Give the measured EC50 of H-Y[Aib]QGTFTSD[4Pal]S[Orn][αMeL]LDKK([AEEA-γGlu-C18 diacid])AQ[αMe4Pal]AFIE[αMe4Pal]LIEGGPSSGAPPPSGS-NH2 [Example 949] .
[reply] 721

----------
I'd be grateful if you could share measured pEC50 for these entries.
Target: human GcgR (Homo sapiens, UniProt P47871)
Sequence (P47871 26-477): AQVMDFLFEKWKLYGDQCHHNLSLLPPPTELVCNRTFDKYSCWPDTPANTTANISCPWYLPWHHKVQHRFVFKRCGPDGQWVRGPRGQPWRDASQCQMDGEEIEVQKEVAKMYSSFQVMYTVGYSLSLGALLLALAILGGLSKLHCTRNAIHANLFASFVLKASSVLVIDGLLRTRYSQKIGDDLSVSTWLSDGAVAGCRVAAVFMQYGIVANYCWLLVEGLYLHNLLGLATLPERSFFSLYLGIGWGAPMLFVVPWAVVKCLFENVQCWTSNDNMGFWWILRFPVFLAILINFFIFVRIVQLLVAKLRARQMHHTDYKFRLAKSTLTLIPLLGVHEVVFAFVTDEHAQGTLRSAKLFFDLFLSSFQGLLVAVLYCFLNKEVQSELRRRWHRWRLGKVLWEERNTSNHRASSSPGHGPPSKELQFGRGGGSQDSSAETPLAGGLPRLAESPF
Assay: Functional cAMP activity in the presence of 1% HSA
Assay type: cell-based
Conditions: read-out: cAMP Rel EC50, hGcgR
Starred links: 1 amine or outer side, 2 acyl side, 3 side chain; linkers in the order of their positions; H or OH if unused. Non-standard residues stand in square brackets, D forms with d. Groups on a side chain read outwards from the residue. *: point of attachment. C18 diacid = O=C(O)CCCCCCCCCCCCCCCCC(=O)*; αMePhe(2-F) = C[C@](N)(Cc1ccccc1F)C(=O)O; γGlu = O=C(O)[C@H](CCC(=O)[*:2])N[*:1]; αMe4Pal = C[C@](N)(Cc1ccncc1)C(=O)O; αMeY = C[C@](N)(Cc1ccc(O)cc1)C(=O)O; 4Pal = N[C@@H](Cc1ccncc1)C(=O)O; αMeL = CC(C)C[C@](C)(N)C(=O)O; αMeS = C[C@](N)(CO)C(=O)O; Orn = NCCC[C@H](N)C(=O)O; Aib = CC(C)(N)C(=O)O
Answer as the number alone; pEC50 is minus log10 of concentration in mol/L.

[ask] Give the measured pEC50 of H-Y[Aib]QGTFTSD[4Pal]SQ[αMeL]LDKK([Glu-γGlu-Glu-C18 diacid])AQ[αMe4Pal]AFIEYLIE[Aib]GPSSGAPPPSGS-NH2 [Example 896] .
[reply] 5.95

[ask] Give the measured pEC50 of H-Y[Aib]QGT[αMePhe(2-F)]TSD[4Pal][αMeS]I[αMeL]LD[Orn]QAQ[αMe4Pal]EFI[dE][αMeY]LIEGGPSSGAPPPSGSE-NH2 [Example 1233] .
[reply] 8.00

[ask] Give the measured pEC50 of H-Y[Aib]QGTFTSD[4Pal]SQ[αMeL]LDKK([γGlu-γGlu-C18 diacid])AQ[αMe4Pal]AFIEYLIAGGPSSGAPPPEGS-NH2 [Example 969] .
[reply] 6.18

----------
Target: human GLP1-R (Homo sapiens, UniProt P43220)
Sequence (P43220 24-463): as the sequence (P43220 24-463) above
Assay: GLP1-R internalization assay in HEK293 cells
Type: cell-based
Conditions: HEK293 cells expressing SNAP-GLP-1R; read-out: GLP1R Internalization EC50
Starred links: 1 amine or outer side, 2 acyl side, 3 side chain; linkers in the order of their positions; H or OH if unused. Non-standard residues stand in square brackets, D forms with d. Groups on a side chain read outwards from the residue. No end group written: not given here. *: point of attachment. C20 diacid = O=C(O)CCCCCCCCCCCCCCCCCCC(=O)*; C18 diacid = O=C(O)CCCCCCCCCCCCCCCCC(=O)*; γGlu = O=C(O)[C@H](CCC(=O)[*:2])N[*:1]; αMe4Pal = C[C@](N)(Cc1ccncc1)C(=O)O; 4Pal = N[C@@H](Cc1ccncc1)C(=O)O; αMeL = CC(C)C[C@](C)(N)C(=O)O; Orn = NCCC[C@H](N)C(=O)O; AEEA = NCCOCCOCC(=O)O; Aib = CC(C)(N)C(=O)O
I'd be grateful if you could share measured EC50 for these entries.
Record the value in nM, omitting the unit from your answer.

[ask] Any idea what EC50 came out for H-Y[Aib]QGTFTSDFS[Orn][αMeL]LDKK([AEEA-γGlu-C18 diacid])AQ[Aib]AFIEWLLEGGPSSGAPPPEGS-NH2 [Example 121] on human GLP1-R (Homo sapiens, UniProt P43220)?
[reply] 38.1

[ask] Any idea what EC50 came out for H-Y[Aib]QGTFTSDFS[Orn][αMeL]LDKK([AEEA-AEEA-γGlu-C18 diacid])AQ[Aib]AFIEYLLE[dA]GPSSGEPPPSGQ-NH2 [Example 157] on human GLP1-R (Homo sapiens, UniProt P43220)?
[reply] 60.3

[ask] Any idea what EC50 came out for Y[Aib]QGTFTSDFS[Orn][αMeL]LDKK([AEEA-AEEA-γGlu-C18 diacid])AQ[Aib]AFIEYLLE[dA]GPSSGEPPPSGS-NH2 [Example 155] on human GLP1-R (Homo sapiens, UniProt P43220)?
[reply] 85.1

[ask] Any idea what EC50 came out for H-Y[Aib]QGTFTSD[4Pal]SQ[αMeL]LDKK([γGlu-γGlu-C18 diacid])AQ[αMe4Pal]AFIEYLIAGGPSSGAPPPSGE-NH2 [Example 883] on human GLP1-R (Homo sapiens, UniProt P43220)?
[reply] 23.9

[ask] Any idea what EC50 came out for H-Y[Aib]QGTFTSDFS[Orn][αMeL]LDKK([AEEA-AEEA-γGlu-C18 diacid])AQ[Aib]AFIEYLLE[Aib]GHSSGAPPPSGE-NH2 [Example 186] on human GLP1-R (Homo sapiens, UniProt P43220)?
[reply] 124

[ask] Any idea what EC50 came out for H-Y[Aib]QGTFTSDFSK[αMeL]LDKK([AEEA-γGlu-C20 diacid])AQ[Aib]AFIEYLLAGGPSSGAPPPGGS-NH2 [Example 16] on human GLP1-R (Homo sapiens, UniProt P43220)?
[reply] 37.8

[ask] Any idea what EC50 came out for Y[Aib]QGTFTSDFS[Orn][αMeL]LDKK([AEEA-γGlu-C18 diacid])AQ[Aib]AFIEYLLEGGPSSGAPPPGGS-NH2 [Example 62] on human GLP1-R (Homo sapiens, UniProt P43220)?
[reply] 40.3

[ask] Any idea what EC50 came out for H-Y[Aib]QGTFTSDFSK[αMeL]LDKK([AEEA-γGlu-C20 diacid])AQ[Aib]AFIEYLLAGGPSSGEPPPSEG[AEEA]-NH2 [Example 32] on human GLP1-R (Homo sapiens, UniProt P43220)?
[reply] 86.1

[ask] Any idea what EC50 came out for H-Y[Aib]QGTFTSDFSK[αMeL]LDKK([AEEA-γGlu-C20 diacid])AQ[Aib]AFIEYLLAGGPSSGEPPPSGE[AEEA]-NH2 [Example 33] on human GLP1-R (Homo sapiens, UniProt P43220)?
[reply] 106

[ask] Any idea what EC50 came out for H-Y[Aib]QGTFTSDFS[Orn][αMeL]LDKK([AEEA-γGlu-C18 diacid])AQ[Aib]AFIEYLIE[Aib]GESSGAPPPSGS-NH2 [Example 218] on human GLP1-R (Homo sapiens, UniProt P43220)?
[reply] 80.5

[ask] Any idea what EC50 came out for H-Y[Aib]QGTFTSDFSK[αMeL]LDKK([AEEA-γGlu-C18 diacid])AQ[Aib]AFIEYLLE[Aib]GPSSGAPPPSEG-NH2 [Example 57] on human GLP1-R (Homo sapiens, UniProt P43220)?
[reply] 76.6

[ask] Any idea what EC50 came out for H-Y[Aib]QGTFTSD[4Pal]SR[αMeL]LDKK([AEEA-γGlu-C18 diacid])AQ[Aib]AFIEYLLE[Aib]GESSGAPPPSGS-NH2 [Example 132] on human GLP1-R (Homo sapiens, UniProt P43220)?
[reply] 72.7
